Hey, just so you know, these numbers are from PubChem BioAssay (NCI).

Consider the following molecules and their measured growth readings.
- Test system: SN12C renal
- assayMethodText: NCI-60 one-dose screen, 48 h (100 = growth as untreated, 0 = no growth, -100 = all killed)
- conditionSummary: 10 µM unless noted
Compounds without any hit were thinned out: in the full panel of roughly 83,000, 20% have a hit.
Express the result in % but write the number alone.

Worked cases, answers included:
NS(=O)(=O)c1ccc(N2N=C(c3ccc(NC(=O)Nc4ccccc4)cc3)CC2c2ccc(Br)cc2)cc1 (configuration not stated)    -97.7
CCOC(=O)/C(F)=C/C1CC1C1CCN(C(=O)OC(C)(C)C)CC1 (configuration not stated)    62.6
OC1CCC(Cn2c(C(F)(F)F)cc3c(Cl)ncnc32)CC1 (configuration not stated)    18.5
Nc1nc2cc(-c3ccc4ncnc(NCc5ccccc5)c4c3)ccc2o1    -33.7
COc1c(B(O)O)cc(F)cc1-c1nc2ccc3[nH]ncc3c2c2c1COCC2    50.3

Q: Suppose we examine the molecule CCN(C(=O)CN1C(=O)/C(=C/c2ccco2)SC1=S)C1CCS(=O)(=O)C1 (configuration not stated) ; what growth value has been reported?
A: 106

Q: I am curious: what growth value has been reported for O=C(Nc1ccc(-c2ccc3c(c2)NC(=O)/C3=C\c2ccc[nH]2)cc1)Nc1ccc(Cl)c(Cl)c1 ?
A: 68.7

Q: Entry under review: Nc1nnc(-c2cncc(Br)c2)c(-c2c[nH]c3ccc(Cl)cc23)n1 . Reported growth?
A: 83.2

Q: Any idea what growth was measured for Clc1ccc(-c2nc3c4c(-c5ccccc5)c(-c5ccccc5)n(Cc5ccccc5)c4ncn3n2)cc1 ?
A: 0.356

Q: Tell me the measured growth of O=C(Cc1c(-c2cccc([N+](=O)[O-])c2)n(-c2ncnc3c2c(-c2ccccc2)c(-c2ccccc2)n3Cc2ccccc2)[nH]c1=O)c1ccc(Cl)c(Cl)c1 , please.
A: 38.5

Q: Could you tell me which growth is on file for COc1cc(CNC(=O)C[C@H](C)CCC=C(C)C)ccc1OCc1cn(-c2cccc(C(F)(F)F)c2)nn1 ?
A: 27.1

Q: Recorded growth for c1n[nH]cc1-c1nc2ccc3[nH]ncc3c2c2c1CC1(CCOCC1)CC2 , please?
A: 28.8
